Parameter: pIC50. Scope: all listed entries.
subject of test: UniProtKB P33535
assay info: Opiate Binding Assay, displacement of 3[H]-DAMPGO from μ receptors
conditions used: read-out: Mean IC50 Value, μ; rat forebrain membranes, 3[H]-DAMPGO 2.0 nM, 37° C., pH 7.4
pIC50: −log10 of the molar value. Where a name gives a salt, the structure may show the parent alone.
value type: pIC50

1) Cc1cc(O)cc(C)c1C[C@H](NC(=O)OC(C)(C)C)C(=O)NC(C)(C)CN : 6.00
2) CC(=O)N[C@@H](Cc1ccccc1)C(=O)NCC(C)(C)NC(=O)[C@@H](N)Cc1c(C)cc(OC(C)=O)cc1C [Example 16, hydrochloride] : 9.29

* * *

Below, each entry is listed with its recorded ED50.
Tested on: mice
assay info: Writhing Assay (phenylbenzoquinone (PBQ)-induced writhing), analgesic activity
Type: in vivo, CD Charles River mice
conditions used: Mus musculus, sc, 25 min, subcutaneous, PBQ i.p. 25 min after compound, 50% of mice with writhes <= half control median, read-out: ED50, Writhing Assay, Subcutaneous (S.C.)
Excerpt: The "Writhing Assay" is one of the most widely-used experimental procedures for measuring the analgesic activity of different narcotic and nonnarcotic analgesic agents, and involves the continuous, chemically-induced pain of visceral origin to an animal, such as a mouse or rat. [Gyires et al., Arch. int. […] Five minutes later, each mouse was individually placed into a glass beaker for observation, and the number of writhes occurring during the following ten-minute period was counted. […]
Counter-ions that a name gives are not always drawn.
value type: ED50 (mg/kg)

1) CC(=O)N[C@@H](Cc1ccccc1)C(=O)NCC(C)(C)NC(=O)[C@@H](N)Cc1c(C)cc(OC(C)=O)cc1C [Example 16, hydrochloride] : 5
2) CNC(=O)N[C@@H](Cc1ccccc1)C(=O)NCC(C)(C)NC(=O)[C@@H](N)Cc1c(C)cc(O)cc1C [Example 37, monohydrochloride] : 5
3) CC(=O)N[C@@H](Cc1ccccc1)C(=O)NCC(C)(C)NC(=O)[C@@H](N)Cc1ccc(O)cc1 [Jacobson Compound, reference compound] : 1.6
4) CC(=O)N[C@@H](Cc1c(C)cccc1C)C(=O)NCCNC(=O)[C@@H](N)Cc1c(C)cc(O)cc1C [Example 52, hydrochloride] : 5
5) CC(=O)N[C@@H](CCc1ccccc1)C(=O)NCC(C)(C)NC(=O)[C@@H](N)Cc1c(C)cc(O)cc1C [Example 18, hydrochloride] : 5
6) CC(=O)N[C@@H](Cc1ccccc1)C(=O)NCC(C)(C)NC(=O)[C@@H](N)Cc1c(C)cc(O)cc1C [Example 47, monohydrochloride] : 0.2
7) Cc1cc(O)cc(C)c1C[C@H](N)C(=O)NC(C)(C)CNC(=O)[C@H](Cc1ccccc1)NC(=O)OCc1ccccc1 [Example 10, monohydrochloride] : 5

* * *

subject of test: μ opioid receptors (Rattus norvegicus)
Sequence (P33535 whole entry): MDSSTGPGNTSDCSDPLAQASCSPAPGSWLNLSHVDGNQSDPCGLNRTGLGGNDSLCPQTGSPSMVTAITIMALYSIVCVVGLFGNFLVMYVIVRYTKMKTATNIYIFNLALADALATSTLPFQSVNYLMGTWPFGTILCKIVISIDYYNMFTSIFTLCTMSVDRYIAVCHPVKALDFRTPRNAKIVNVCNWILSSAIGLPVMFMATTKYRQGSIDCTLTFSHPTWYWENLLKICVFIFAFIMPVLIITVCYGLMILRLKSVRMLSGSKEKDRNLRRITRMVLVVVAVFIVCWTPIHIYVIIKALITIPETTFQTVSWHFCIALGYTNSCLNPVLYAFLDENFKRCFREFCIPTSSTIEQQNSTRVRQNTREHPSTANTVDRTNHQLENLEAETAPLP
assay info: Opiate Binding Assay, displacement of 3[H]-DAMPGO from μ receptors
Where a name gives a salt, the structure may show the parent alone.
Reported IC50 is given for each of the following molecules.
value type: IC50 (nM)

1. CC(=O)N[C@@H](Cc1ccccc1)C(=O)N1CCN(C(=O)[C@@H](N)Cc2c(C)cc(O)cc2C)CC1 [Example 54, monohydrochloride] : 3.3
2. Cc1cc(O)cc(C)c1C[C@H](N)C(=O)N[C@H](C)CNC(=O)[C@H](Cc1ccccc1)NC(=O)OCc1ccccc1 [Example 46, hydrochloride] : 0.88
3. Cc1cc(O)cc(C)c1C[C@H](N)C(=O)NC(C)(C)CNC(=O)[C@@H](N)Cc1ccccc1 [Example 12, dihydrochloride] : 3.4
4. Cc1cc(O)c(C)c(C)c1C[C@@H](N)C(=O)NC(C)(C)CNC(=O)[C@H](Cc1ccccc1)NC(=O)OCc1ccccc1 [Example 31, hydrochloride] : 100
5. Cc1cc(O)cc(C)c1C[C@H](N)C(=O)NC(C)(C)CNC(=O)[C@H](Cc1ccccc1)NC(=O)NS(=O)(=O)c1ccccc1 [Example 59, monohydrochloride] : 3.2
6. Cc1cc(O)cc(C)c1C[C@H](N)C(=O)NCCNC(=O)[C@H](Cc1ccccc1)NC(=O)OCc1ccccc1 [Example 22, monohydrochloride] : 2.6

* * *

Overview of reported Mean IC50 μ/δ Ratio across a group of compounds:
subject of test: δ opioid receptors (Rattus norvegicus, UniProt P33533)
Sequence (P33533 whole entry): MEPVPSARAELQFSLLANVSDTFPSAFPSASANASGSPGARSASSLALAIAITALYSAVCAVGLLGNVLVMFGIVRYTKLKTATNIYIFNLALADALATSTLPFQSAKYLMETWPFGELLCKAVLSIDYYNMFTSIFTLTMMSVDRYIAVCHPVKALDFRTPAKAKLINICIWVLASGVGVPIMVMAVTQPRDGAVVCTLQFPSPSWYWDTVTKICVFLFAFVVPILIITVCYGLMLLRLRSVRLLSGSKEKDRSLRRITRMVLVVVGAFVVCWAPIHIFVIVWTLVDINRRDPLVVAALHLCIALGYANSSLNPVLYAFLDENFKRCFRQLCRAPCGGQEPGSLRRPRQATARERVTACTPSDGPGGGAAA
assay info: Opiate Binding Assay, displacement of 3[H]-DSLET from δ receptors
conditions used: ratio of mean IC50 values for μ and δ; above 1.0 = more δ specific
Structures can show the parent of a compound that is named as a salt.
value type: Mean IC50 μ/δ Ratio

1. Cc1cc(O)cc(C)c1C[C@H](N)C(=O)N[C@H](C)CNC(=O)[C@H](Cc1ccccc1)NC(=O)OCc1ccccc1 [Example 46, hydrochloride] : 0.2
2. Cc1cc(O)cc(C)c1C[C@H](N)C(=O)NC(C)(C)CNC(=O)[C@H](Cc1ccccc1)NC(=O)C(F)(F)F [Example 14, hydrochloride] : 0.8
3. Cc1cc(O)cc(C)c1C[C@H](N)C(=O)NC(C)(C)CNC(=O)[C@@H](N)Cc1ccccc1 [Example 12, dihydrochloride] : 0.1

* * *

subject of test: μ opioid receptors (Rattus norvegicus)
assay info: Opiate Binding Assay, displacement of 3[H]-DAMPGO from μ receptors
Where a name gives a salt, the structure may show the parent alone.
value type: IC50 (nM)

1. Cc1cc(O)cc(C)c1C[C@H](NC(=O)OC(C)(C)C)C(=O)NCCNC(=O)[C@@H](N)Cc1ccccc1 : 1000
2. CC(=O)N[C@@H](Cc1ccccc1)C(=O)N1CCC(NC(=O)[C@@H](N)Cc2c(C)cc(O)cc2C)C1 (stereo partly drawn) [Example 56, monohydrochloride] : 85.5

* * *

subject of test: μ opioid receptors (Rattus norvegicus)
assay info: Opiate Binding Assay, displacement of 3[H]-DAMPGO from μ receptors
Where a name gives a salt, the structure may show the parent alone.
value type: IC50 (nM)

1) CC(=O)N[C@@H](Cc1ccc(F)cc1)C(=O)NCC(C)(C)NC(=O)[C@@H](N)Cc1c(C)cc(O)cc1C [Example 6, monohydrochloride] : 1.1
2) Cc1cc(O)cc(C)c1C[C@H](NC(=O)OC(C)(C)C)C(=O)NC(C)(C)CNC(=O)[C@@H](N)Cc1ccccc1 [Example 11, acetic acid salt] : 1000
3) CC(=O)N[C@@H](Cc1ccccc1)C(=O)NCC(C)(C)NC(=O)[C@@H](N)Cc1c(C)cc(O)cc1C [Example 47, monohydrochloride] : 0.4
4) Cc1cc(O)cc(C)c1C[C@H](N)C(=O)NCCNC(=O)[C@@H](N)Cc1ccccc1 [Example 24, dihydrochloride] : 3.7

* * *

subject of test: δ opioid receptors (Rattus norvegicus, UniProt P33533)
assay info: Opiate Binding Assay, displacement of 3[H]-DSLET from δ receptors
pIC50: −log10 of the molar value. Where a name gives a salt, the structure may show the parent alone.
Assign yes to entries whose pIC50 meets or exceeds 8; assign no to the rest.

1) Cc1cc(O)cc(C)c1C[C@H](N)C(=O)NCC(C)(C)NC(=O)[C@H](Cc1ccccc1)NC(=O)OCc1ccccc1 [Example 26, monohydrochloride] : no
2) CC(=O)N[C@@H](Cc1ccccc1)C(=O)N1CCC(NC(=O)[C@@H](N)Cc2c(C)cc(O)cc2C)C1 (some centres unmarked) [Example 56, monohydrochloride] : no
3) CC(=O)N[C@@H](Cc1ccccc1)C(=O)N1CCN(C(=O)[C@@H](N)Cc2c(C)cc(O)cc2C)CC1 [Example 54, monohydrochloride] : no
4) CC(=O)N[C@H](C(=O)NCC(C)(C)NC(=O)[C@@H](N)Cc1c(C)cc(O)cc1C)c1ccccc1 [Example 20, hydrochloride] : no
5) CC(=O)N[C@@H](Cc1ccc(F)cc1)C(=O)NCC(C)(C)NC(=O)[C@@H](N)Cc1c(C)cc(O)cc1C [Example 6, monohydrochloride] : yes
6) CC(=O)N[C@@H](CCc1ccccc1)C(=O)NCC(C)(C)NC(=O)[C@@H](N)Cc1c(C)cc(O)cc1C [Example 18, hydrochloride] : yes
7) CC(=O)N[C@@H](Cc1c(C)cccc1C)C(=O)NCCNC(=O)[C@@H](N)Cc1ccc(O)cc1 [Example 51, hydrochloride] : no
8) Cc1cc(O)cc(C)c1C[C@H](N)C(=O)N[C@H](C)CNC(=O)[C@H](Cc1ccccc1)NC(=O)OCc1ccccc1 [Example 46, hydrochloride] : yes
9) Cc1cc(O)cc(C)c1C[C@H](N)C(=O)NC(C)(C)CNC(=O)[C@H](Cc1ccccc1)NC(=O)C(F)(F)F [Example 14, hydrochloride] : yes
10) Cc1cc(O)c(C)c(C)c1C[C@H](N)C(=O)NC(C)(C)CNC(=O)[C@H](Cc1ccccc1)NC(=O)OCc1ccccc1 [Example 30, hydrochloride] : no
11) CC(=O)N[C@@H](Cc1ccccc1)C(=O)NCC(C)(C)NC(=O)[C@@H](N)Cc1ccc(O)cc1 [Jacobson Compound, reference compound] : yes
12) Cc1cc(O)c(C)c(C)c1C[C@@H](N)C(=O)NC(C)(C)CNC(=O)[C@H](Cc1ccccc1)NC(=O)OCc1ccccc1 [Example 31, hydrochloride] : no
13) Cc1cc(O)cc(C)c1C[C@H](NC(=O)OC(C)(C)C)C(=O)NC(C)(C)CNC(=O)[C@@H](N)Cc1ccccc1 [Example 11, acetic acid salt] : no
14) Cc1cc(O)cc(C)c1C[C@H](NC(=O)OC(C)(C)C)C(=O)NCCNC(=O)[C@@H](N)Cc1ccccc1 : no
15) CC(=O)N[C@@H](Cc1ccccc1)C(=O)NCCNC(=O)[C@@H](N)Cc1c(C)cc(O)cc1C [Example 48, hydrochloride] : yes
16) Cc1cc(O)cc(C)c1C[C@H](N)C(=O)NCCNC(=O)[C@H](Cc1ccccc1)NC(=O)OCc1ccccc1 [Example 22, monohydrochloride] : yes
17) Cc1cc(O)cc(C)c1C[C@H](N)C(=O)NCCNC(=O)[C@@H](N)Cc1ccccc1 [Example 24, dihydrochloride] : no
18) CC(=O)N[C@@H](Cc1ccccc1)C(=O)NCC(C)(C)NC(=O)[C@@H](N)Cc1c(C)cc(O)cc1C [Example 47, monohydrochloride] : yes

// provenance: patent US5272175A
